The reported measurements were obtained from patent US8445503B2.

# measurement.target: GST-PLK3 (Homo sapiens)
# Construct: purchased CarnaBio
# experimental.protocol: PLK TR-FRET peptide assay, PLK3
# Format: biochemical
# assay.context: PLK TR-FRET peptide assay, GST-PLK3; read-out: Plk3 IC50
measured.metric: IC50

Reported IC50 for `CC[C@@H]1C(=O)N(C)c2cnc(-n3ccnc3-c3ccc(F)cc3)nc2N1CCC(F)(F)F` was 10 to 50 µM

Reported IC50 for `CC[C@@H]1C(=O)N(C)c2cnc(-n3ccnc3-c3cccnc3)nc2N1C(C)C` was 10 to 50 µM

Reported IC50 for `CC[C@@H]1C(=O)N(C)c2cnc(-n3ccnc3-c3ccc(S(C)(=O)=O)cc3)nc2N1C1CCCC1` was 10 to 50 µM

---

# measurement.target: GST-PLK3 (Homo sapiens, UniProt Q9H4B4)
# Construct: purchased CarnaBio
# Sequence (Q9H4B4 whole entry): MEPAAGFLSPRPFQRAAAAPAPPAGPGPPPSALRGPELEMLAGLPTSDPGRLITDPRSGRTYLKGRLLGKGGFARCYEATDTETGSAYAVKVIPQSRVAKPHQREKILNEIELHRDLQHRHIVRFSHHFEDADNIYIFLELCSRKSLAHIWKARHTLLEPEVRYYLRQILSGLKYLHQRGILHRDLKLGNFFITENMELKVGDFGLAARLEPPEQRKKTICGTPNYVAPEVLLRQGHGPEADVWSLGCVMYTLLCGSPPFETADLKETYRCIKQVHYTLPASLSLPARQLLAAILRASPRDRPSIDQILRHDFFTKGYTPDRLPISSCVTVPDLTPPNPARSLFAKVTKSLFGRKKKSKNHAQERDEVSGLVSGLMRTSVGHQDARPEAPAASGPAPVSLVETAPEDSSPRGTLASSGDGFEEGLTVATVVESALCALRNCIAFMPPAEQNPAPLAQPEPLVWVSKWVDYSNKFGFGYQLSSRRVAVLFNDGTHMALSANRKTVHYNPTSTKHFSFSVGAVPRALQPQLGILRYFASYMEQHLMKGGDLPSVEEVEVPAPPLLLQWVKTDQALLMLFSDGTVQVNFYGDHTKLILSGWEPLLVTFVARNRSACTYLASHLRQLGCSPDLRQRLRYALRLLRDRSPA
# experimental.protocol: PLK TR-FRET peptide assay, PLK3
# Assay type: biochemical
# assay.context: PLK TR-FRET peptide assay, GST-PLK3; read-out: Plk3 IC50
pIC50: −log10 of the molar value.
measured.metric: pIC50

Reported pIC50 for `CC[C@@H]1C(=O)N(C)c2cnc(-n3ccnc3-c3ccccn3)nc2N1C(C)C` was 5.00 to 6.00

Reported pIC50 for CC[C@@H]1C(=O)N(C)c2cnc(-n3ccnc3-c3ccc(F)cc3)nc2N1C1CCC(F)(F)C1 (stereo partly drawn) was 5.00 to 6.00

Reported pIC50 for `CC[C@@H]1C(=O)N(C)c2cnc(-c3cnoc3-c3ccccc3)nc2N1C1CCCC1` was > 6.00

Reported pIC50 for `CC[C@@H]1C(=O)N(C)c2cnc(-n3ccnc3-c3ccncc3)nc2N1C1CCCC1` was > 6.00

Reported pIC50 for `CC[C@@H]1C(=O)N(C)c2cnc(-c3ccncc3)nc2N1C1CCCC1` was 4.30 to 5.00

Reported pIC50 for `CC[C@@]12COCCN1c1nc(-c3cnoc3-c3ccccc3)ncc1N(C)C2=O` was 4.30 to 5.00

Reported pIC50 for `CC[C@@H]1C(=O)N(C)c2cnc(-n3cnc(C(=O)NC)c3)nc2N1C1CCCC1` was 5.00 to 6.00

Reported pIC50 for CC[C@@H]1C(=O)N(C)c2cnc(-n3ccnc3-c3ccccc3)nc2N1C1CCOC1 (stereo partly drawn) [Example 203] was 5.00 to 6.00

Reported pIC50 for `CC[C@@H]1C(=O)N(C)c2cnc(-n3ccc(C(=O)O)n3)nc2N1C1CCCC1` was 4.30 to 5.00

Reported pIC50 for CCC12COCCN1c1nc(-n3ccnc3-c3ccccc3)ncc1N(C)C2=O (racemic) was 5.00 to 6.00

Reported pIC50 for `CC[C@]12COCCN1c1nc(-c3ccncc3-c3ccccc3)ncc1N(C)C2=O` was < 4.30

Reported pIC50 for `CC[C@@H]1C(=O)N(C)c2cnc(-c3cnsc3-c3ccc(F)cc3)nc2N1C(C)C` was 5.00 to 6.00

Reported pIC50 for `CC[C@@H]1C(=O)N(C)c2cnc(-n3cnc(C)c3)nc2N1C1CCCC1` was 4.30 to 5.00

Reported pIC50 for `CC[C@@H]1C(=O)N(C)c2cnc(-n3ccnc3-c3nccs3)nc2N1C1CCOCC1` was 4.30 to 5.00

Reported pIC50 for `CC[C@@H]1C(=O)N(C)c2cnc(-c3ccn(C)c(=O)c3)nc2N1C1CCCC1` was 4.30 to 5.00

Reported pIC50 for `CC[C@@H]1C(=O)N(C)c2cnc(-c3cn[nH]c3-c3ccccn3)nc2N1C1CCCC1` was > 6.00

Reported pIC50 for `CC[C@@]12CCCN1c1nc(-n3ccnc3-c3ccccc3)ncc1N(C)C2=O` was 5.00 to 6.00

Reported pIC50 for `CC[C@@H]1C(=O)N(C)c2cnc(-n3ccc(C(=O)NC)n3)nc2N1C1CCCC1` was < 4.30

Reported pIC50 for `CN1C(=O)[C@]2(C)CCCN2c2nc(-n3ccnc3-c3ccccc3)ncc21` was 4.30 to 5.00

Reported pIC50 for `CC[C@@H]1C(=O)N(C)c2cnc(-n3cnc(CC#N)c3)nc2N1C1CCCC1` was 4.30 to 5.00

Reported pIC50 for `CC[C@@]12COCCN1c1nc(-n3ccnc3-c3ccc(F)cn3)ncc1N(C)C2=O` was < 4.30

Reported pIC50 for `CC[C@@]12CCCN1c1nc(-n3ccnc3-c3ccccn3)ncc1N(C)C2=O` was 4.30 to 5.00

Reported pIC50 for `CC[C@]12CN(C)CCN1c1nc(-n3ccnc3-c3ccccc3)ncc1N(C)C2=O` was < 4.30

Reported pIC50 for `CC[C@@H]1C(=O)N(C)c2cnc(-n3ccnc3-c3ccccc3)nc2N1c1cnn(C)c1` was 5.00 to 6.00

Reported pIC50 for `CC[C@@H]1C(=O)N(C)c2cnc(-n3cnc(C(=O)OC)c3)nc2N1C1CCCC1` was 5.00 to 6.00

Reported pIC50 for `CC[C@@H]1C(=O)N(C)c2cnc(-n3ccnc3-c3ccc(F)cc3)nc2N1c1ccn(C)n1` was 5.00 to 6.00

Reported pIC50 for `CC[C@@H]1C(=O)N(C)c2cnc(-c3n[nH]cc3-c3ccccc3)nc2N1C1CCCC1` was 5.00 to 6.00
